Collected cAMP release, % activity, 100 nM values appear next to each entry.
- STUDY_SYSTEM: human GLP-1 receptor (human, UniProt P43220 24-463)
- Sequence (P43220 24-463): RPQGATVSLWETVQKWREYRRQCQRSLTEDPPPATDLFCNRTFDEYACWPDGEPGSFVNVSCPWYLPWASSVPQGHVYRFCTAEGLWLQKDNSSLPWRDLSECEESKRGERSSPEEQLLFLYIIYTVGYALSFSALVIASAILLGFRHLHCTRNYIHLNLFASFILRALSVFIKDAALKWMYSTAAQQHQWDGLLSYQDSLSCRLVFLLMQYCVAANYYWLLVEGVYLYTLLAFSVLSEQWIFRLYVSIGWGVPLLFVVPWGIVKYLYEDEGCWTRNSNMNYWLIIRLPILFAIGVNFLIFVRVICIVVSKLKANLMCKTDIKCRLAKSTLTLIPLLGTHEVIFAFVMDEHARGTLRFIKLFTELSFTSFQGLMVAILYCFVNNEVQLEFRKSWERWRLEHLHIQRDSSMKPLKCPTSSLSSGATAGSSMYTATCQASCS
- ASSAY_PROCEDURE: cell-based or functional assay
Starred links: 1 amine or outer side, 2 acyl side, 3 side chain; linkers in the order of their positions; H or OH if unused. Non-standard residues stand in square brackets, D forms with d. No end group written: not given here. *: point of attachment. NMe2F‑APPA = N-methyl-2-amino-5-(2-fluorophenyl)pentanoic acid, CN([C@@H](CCCc1ccccc1F)C(=O)[*:2])[*:1]; AMCB = 2-amino-5-(4-chloro-2-methylphenyl)pentanoic acid, Cc1cc(Cl)ccc1CCC[C@H](N[*:1])C(=O)[*:2]; 2CF3,4F‑APPA = 2-amino-5-(4-fluoro-2-(trifluoromethyl)phenyl)pentanoic acid; 2CF3‑APPA = 2-amino-5-(2-(trifluoromethyl)phenyl)pentanoic acid; Bip(2'-Et-4'-OMe) = CCc1cc(OC)ccc1-c1ccc(C[C@H](N)C(=O)O)cc1; Leu(5,5,5,5',5',5'-F6) = N[C@@H](CC(C(F)(F)F)C(F)(F)F)C(=O)O; 2Cl‑APPA = 2-amino-5-(2-chlorophenyl)pentanoic acid; 2F‑APPA = 2-amino-5-(2-fluorophenyl)pentanoic acid; αMePhe(2-F) = C[C@](N)(Cc1ccccc1F)C(=O)O; NMeBip(OMe) = N-methylated Bip(OMe); hhPhe = N[C@@H](CCCc1ccccc1)C(=O)O; NMeD = CN[C@@H](CC(=O)O)C(=O)O; aThr = C[C@H](O)[C@H](N)C(=O)O; NMeAPPA = not defined here; CNB = not defined here; Ac3c = NC1(C(=O)O)CC1; Aib = CC(C)(N)C(=O)O; Moc = COC(=O)*
MEASURED_PROPERTY: cAMP release, % activity, 100 nM (%)

INSERT INTO results (binder, measured_property, quantitative_result) VALUES
  ('H[Aib][CNB]G[aThr][αMePhe(2-F)][aThr]SD[Bip(2''-Et-4''-OMe)][hhPhe] (reading uncertain) [Seq. ID. No. 114: H-Aib-(CNB)-G-T(allo)-(α-Me-2F-Phe)-T(allo)-SD-Bip(OMe)-(APPA)]', 'cAMP release, % activity, 100 nM', 92),
  ('H[Aib][Leu(5,5,5,5'',5'',5''-F6)]G[aThr][αMePhe(2-F)][aThr]S[NMeD][NMeBip(OMe)][NMeAPPA] (reading uncertain) [Seq. ID. No. 220: H-Aib-(Hfl)-G-T(allo)-(α-Me-2F-Phe)-T(allo)-S-(NMe)D-((NMe)Bip(OMe))-((NMe)(APPA))]', 'cAMP release, % activity, 100 nM', 99),
  ('H[Aib][CNB]GTFTSD[Bip(2''-Et-4''-OMe)][2CF3,4F‑APPA] (reading uncertain) [Seq. ID. No. 80: H-Aib-(CNB)-GTFTSD-Bip(OMe)-(2CF3, 4F-APPA)]', 'cAMP release, % activity, 100 nM', 99),
  ('H[Ac3c]QGTFTSD[Bip(2''-Et-4''-OMe)][2CF3,4F‑APPA] [Seq. ID. No. 72: H-(ACP)-QGTFTSD-Bip(OMe)-(2CF3,4F-APPA)]', 'cAMP release, % activity, 100 nM', 90),
  ('H[Aib][CNB]G[aThr][αMePhe(2-F)][aThr]SD[NMeBip(OMe)][NMe2F‑APPA] (reading uncertain) [Seq. ID. No. 144: H-Aib-(CNB)-G-T(allo)-(α-Me-2F-Phe)-T(allo)-SD-((NMe)Bip(OMe))-((NMe)(2F-APPA))]', 'cAMP release, % activity, 100 nM', 93),
  ('H[Aib][CNB]G[aThr][αMePhe(2-F)][aThr]SD[Bip(2''-Et-4''-OMe)][2F‑APPA] (reading uncertain; also: thioamide bonds between residues 9-10 and 10-11) [Seq. ID. No. 180: H-Aib-(CNB)-G-T(allo)-(α-Me-2F-Phe)-T(allo)-SD-(C═S)-Bip(OMe)-(C═S)-(2F-APPA)]', 'cAMP release, % activity, 100 nM', 89),
  ('H[Aib][CNB]G[aThr][αMePhe(2-F)][aThr]S[NMeD][NMeBip(OMe)][NMeAPPA] (reading uncertain) [Seq. ID. No. 154: H-Aib-(CNB)-G-T(allo)-(α-Me-2F-Phe)-T(allo)-S-(NMe)D-((NMe)Bip(OMe))-((NMe)(APPA))]', 'cAMP release, % activity, 100 nM', 98),
  ('HSQGTFTSD[Bip(2''-Et-4''-OMe)][2F‑APPA] [Seq. ID. No. 45: HSQGTFTSD-Bip(OMe)-(2F-APPA)]', 'cAMP release, % activity, 100 nM', 91),
  ('H[Aib][CNB]G[aThr][αMePhe(2-F)][aThr]S[NMeD][NMeBip(OMe)][NMe2F‑APPA] (reading uncertain)', 'cAMP release, % activity, 100 nM', 99),
  ('H[Aib][CNB]GTFTSD[Bip(2''-Et-4''-OMe)][2Cl‑APPA] (reading uncertain) [Seq. ID. No. 82: H-Aib-(CNB)-GTFTSD-Bip(OMe)-(2Cl-APPA)]', 'cAMP release, % activity, 100 nM', 99),
  ('HSQGTFTSD[Bip(2''-Et-4''-OMe)][2CF3‑APPA] [Seq. ID. No. 47: HSQGTFTSD-Bip(OMe)-(2CF3-APPA)]', 'cAMP release, % activity, 100 nM', 93),
  ('HSQGTFTSD[Bip(2''-Et-4''-OMe)][2Cl‑APPA] [Seq. ID. No. 50: HSQGTFTSD-Bip(OMe)-(2Cl-APPA)]', 'cAMP release, % activity, 100 nM', 98),
  ('H[Aib][CNB]G[aThr][αMePhe(2-F)][aThr]SD[Bip(2''-Et-4''-OMe)][2F‑APPA] (reading uncertain; also: thioamide bond between residues 10 and 11) [Seq. ID. No. 168: H-Aib-(CNB)-G-T(allo)-(α-Me-2F-Phe)-T(allo)-SD-Bip(OMe)-(C═S)-(2F-APPA)]', 'cAMP release, % activity, 100 nM', 99),
  ('H[Aib][Leu(5,5,5,5'',5'',5''-F6)]G[aThr][αMePhe(2-F)][aThr]SD[Bip(2''-Et-4''-OMe)][2F‑APPA] (also: thioamide (C═S) bonds Z9-Z10 and Z10-Z11) [Seq. ID. No. 216: H-Aib-(Hfl)-G-T(allo)-(α-Me-2F-Phe)-T(allo)-SD-(C═S)-Bip(OMe)-(C═S)-(2F-APPA)]', 'cAMP release, % activity, 100 nM', 99),
  ('H[Aib]QGT[αMePhe(2-F)]TSD[Bip(2''-Et-4''-OMe)][AMCB] [Seq. ID. No. 40: H-Aib-QGT-(α-Me-2F-Phe)-TSD-Bip(OMe)-(AMCB)]', 'cAMP release, % activity, 100 nM', 85),
  ('Moc-H[Aib]QG[aThr][αMePhe(2-F)][aThr]SD[NMeBip(OMe)][NMe2F‑APPA] [Seq. ID. No. 140: CH3OCO-H-Aib-QG-T(allo)-(α-Me-2F-Phe)-T(allo)-SD-((NMe)Bip(OMe))-((NMe)(2F-APPA))]', 'cAMP release, % activity, 100 nM', 91),
  ('H[Aib][CNB]GTFTSD[Bip(2''-Et-4''-OMe)][2CF3‑APPA] (reading uncertain) [Seq. ID. No. 79: H-Aib-(CNB)-GTFTSD-Bip(OMe)-(2CF3-APPA)]', 'cAMP release, % activity, 100 nM', 99),
  ('H[Aib][CNB]G[aThr][αMePhe(2-F)][aThr]SD[Bip(2''-Et-4''-OMe)][hhPhe] (reading uncertain; also: thioamide bond between residues 10 and 11) [Seq. ID. No. 166: H-Aib-(CNB)-G-T(allo)-(α-Me-2F-Phe)-T(allo)-SD-Bip(OMe)-(C═S)-(APPA)]', 'cAMP release, % activity, 100 nM', 99),
  ('H[Aib][CNB]G[aThr][αMePhe(2-F)][aThr]SD[Bip(2''-Et-4''-OMe)][NMeAPPA] (reading uncertain) [Seq. ID. No. 130: H-Aib-(CNB)-G-T(allo)-(α-Me-2F-Phe)-T(allo)-SD-Bip(OMe)-((NMe)(APPA))]', 'cAMP release, % activity, 100 nM', 89);
